# measuredTarget: UniProt:P06276
# Sequence (P06276 whole entry): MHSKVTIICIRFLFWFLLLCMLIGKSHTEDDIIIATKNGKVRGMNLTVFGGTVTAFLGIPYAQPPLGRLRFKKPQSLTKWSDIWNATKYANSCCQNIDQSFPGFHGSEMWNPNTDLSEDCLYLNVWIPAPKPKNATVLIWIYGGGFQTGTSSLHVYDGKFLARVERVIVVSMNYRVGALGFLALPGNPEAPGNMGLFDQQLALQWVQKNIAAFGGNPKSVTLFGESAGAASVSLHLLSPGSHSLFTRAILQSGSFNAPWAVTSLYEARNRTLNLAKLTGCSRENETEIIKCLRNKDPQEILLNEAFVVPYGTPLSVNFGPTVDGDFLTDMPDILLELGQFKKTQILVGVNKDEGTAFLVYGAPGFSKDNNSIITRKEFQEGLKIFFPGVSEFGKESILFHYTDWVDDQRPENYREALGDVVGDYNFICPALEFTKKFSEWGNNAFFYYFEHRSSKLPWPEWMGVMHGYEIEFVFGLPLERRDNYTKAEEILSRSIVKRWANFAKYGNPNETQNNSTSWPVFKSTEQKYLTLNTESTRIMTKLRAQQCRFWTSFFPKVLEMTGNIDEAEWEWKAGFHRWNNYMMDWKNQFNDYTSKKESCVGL
Mark each entry met if its Ki sits below 20 nM, and not met for all others.

Determine if `CN(CCCCNc1c2c(nc3ccccc13)CCCC2)CCCNc1c2c(nc3c(NC(=O)CNC(=O)CC[C@H](NC(=O)CNC(=O)OCc4ccccc4)C(=O)N[C@@H](Cc4ccccc4)C(=O)OCc4ccccc4)cccc13)CCCC2` shows Ki strictly lower than 20 nM.
not met

Please determine if `Nc1cccc2c(NCCCCCCCCNc3c4c(nc5ccccc35)CCCC4)c3c(nc12)CCCC3` is below 20 nM in terms of Ki.
met

Bench note: check whether `O=[N+]([O-])c1cccc2c(NCCCCCCCCNc3c4c(nc5ccccc35)CCCC4)c3c(nc12)CCCC3` shows Ki below 20 nM
met

Please let me know if `O=C(CC[C@H](NC(=O)CNC(=O)OCc1ccccc1)C(=O)N[C@@H](Cc1ccccc1)C(=O)OCc1ccccc1)NCC(=O)Nc1cccc2c(NCCCCCCCCNc3c4c(nc5ccccc35)CCCC4)c3c(nc12)CCCC3` shows Ki below 20 nM.
not met

---
Is the reported Ki for `CN(CCCCNc1c2c(nc3c(NC(=O)CNC(=O)CC[C@H](NC(=O)CNC(=O)OCc4ccccc4)C(=O)N[C@@H](Cc4ccccc4)C(=O)OCc4ccccc4)cccc13)CCCC2)CCCNc1c2c(nc3ccccc13)CCCC2` strictly below 20 nM?
not met

* * *

Would you kindly list Ratio Ki for each of these compounds?
# Species: Homo sapiens
# experimentNotes: Selectivity ratio of Ki for human acetylcholine esterase to Ki for human butyrylcholine esterase
Answers are plain numbers.

Reported Ratio Ki for `O=C(CC[C@H](NC(=O)CNC(=O)OCc1ccccc1)C(=O)N[C@@H](Cc1ccccc1)C(=O)OCc1ccccc1)NCC(=O)Nc1cccc2c(NCCCCCCCCNc3c4c(nc5ccccc35)CCCC4)c3c(nc12)CCCC3` was 0.038

Each of the following entries comes with a recorded value; kindly state Ratio Ki for each.
1. Nc1cccc2c(NCCCCCCCCNc3c4c(nc5ccccc35)CCCC4)c3c(nc12)CCCC3
2. O=[N+]([O-])c1cccc2c(NCCCCCCCCNc3c4c(nc5ccccc35)CCCC4)c3c(nc12)CCCC3
3. CN(CCCCNc1c2c(nc3ccccc13)CCCC2)CCCNc1c2c(nc3c(NC(=O)CNC(=O)CC[C@H](NC(=O)CNC(=O)OCc4ccccc4)C(=O)N[C@@H](Cc4ccccc4)C(=O)OCc4ccccc4)cccc13)CCCC2
4. CN(CCCCNc1c2c(nc3c(NC(=O)CNC(=O)CC[C@H](NC(=O)CNC(=O)OCc4ccccc4)C(=O)N[C@@H](Cc4ccccc4)C(=O)OCc4ccccc4)cccc13)CCCC2)CCCNc1c2c(nc3ccccc13)CCCC2

[0.028, 13, 0.081, 0.07]

* * *

# measuredTarget: Acetylcholinesterase (Homo sapiens)
# Sequence (P22303 whole entry): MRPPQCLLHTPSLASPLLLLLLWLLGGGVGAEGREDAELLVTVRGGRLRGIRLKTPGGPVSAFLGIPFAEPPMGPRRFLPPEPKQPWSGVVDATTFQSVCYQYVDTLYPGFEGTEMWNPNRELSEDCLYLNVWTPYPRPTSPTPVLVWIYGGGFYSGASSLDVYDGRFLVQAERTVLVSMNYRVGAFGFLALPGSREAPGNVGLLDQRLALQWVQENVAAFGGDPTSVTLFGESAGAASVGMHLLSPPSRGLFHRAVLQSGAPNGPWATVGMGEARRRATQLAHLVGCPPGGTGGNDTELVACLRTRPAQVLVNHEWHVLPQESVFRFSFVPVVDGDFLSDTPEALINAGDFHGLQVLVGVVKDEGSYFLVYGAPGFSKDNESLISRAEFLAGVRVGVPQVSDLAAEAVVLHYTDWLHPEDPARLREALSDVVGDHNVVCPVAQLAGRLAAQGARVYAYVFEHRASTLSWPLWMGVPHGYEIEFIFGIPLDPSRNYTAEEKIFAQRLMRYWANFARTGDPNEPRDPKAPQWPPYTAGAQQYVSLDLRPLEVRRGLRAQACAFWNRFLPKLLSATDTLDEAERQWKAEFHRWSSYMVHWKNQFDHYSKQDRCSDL
Decision: Ki beneath 2 nM gives fulfilled; Ki meeting or exceeding 2 nM gives not fulfilled.

Decide: Ki of `CN(CCCCNc1c2c(nc3ccccc13)CCCC2)CCCNc1c2c(nc3c(NC(=O)CNC(=O)CC[C@H](NC(=O)CNC(=O)OCc4ccccc4)C(=O)N[C@@H](Cc4ccccc4)C(=O)OCc4ccccc4)cccc13)CCCC2` strictly below 2 nM?
not fulfilled

Alright, here's another compound for you.
Is the reported Ki for `O=C(CC[C@H](NC(=O)CNC(=O)OCc1ccccc1)C(=O)N[C@@H](Cc1ccccc1)C(=O)OCc1ccccc1)NCC(=O)Nc1cccc2c(NCCCCCCCCNc3c4c(nc5ccccc35)CCCC4)c3c(nc12)CCCC3` strictly below 2 nM?
fulfilled
